EC50 overview
# system_name: T1, full-length beta-Catenin (Uniprot ID P35222) (Homo sapiens (Human), UniProt P35222 1-781)
# T1 construct: also called bCat; B-Catenin
# T1 sequence: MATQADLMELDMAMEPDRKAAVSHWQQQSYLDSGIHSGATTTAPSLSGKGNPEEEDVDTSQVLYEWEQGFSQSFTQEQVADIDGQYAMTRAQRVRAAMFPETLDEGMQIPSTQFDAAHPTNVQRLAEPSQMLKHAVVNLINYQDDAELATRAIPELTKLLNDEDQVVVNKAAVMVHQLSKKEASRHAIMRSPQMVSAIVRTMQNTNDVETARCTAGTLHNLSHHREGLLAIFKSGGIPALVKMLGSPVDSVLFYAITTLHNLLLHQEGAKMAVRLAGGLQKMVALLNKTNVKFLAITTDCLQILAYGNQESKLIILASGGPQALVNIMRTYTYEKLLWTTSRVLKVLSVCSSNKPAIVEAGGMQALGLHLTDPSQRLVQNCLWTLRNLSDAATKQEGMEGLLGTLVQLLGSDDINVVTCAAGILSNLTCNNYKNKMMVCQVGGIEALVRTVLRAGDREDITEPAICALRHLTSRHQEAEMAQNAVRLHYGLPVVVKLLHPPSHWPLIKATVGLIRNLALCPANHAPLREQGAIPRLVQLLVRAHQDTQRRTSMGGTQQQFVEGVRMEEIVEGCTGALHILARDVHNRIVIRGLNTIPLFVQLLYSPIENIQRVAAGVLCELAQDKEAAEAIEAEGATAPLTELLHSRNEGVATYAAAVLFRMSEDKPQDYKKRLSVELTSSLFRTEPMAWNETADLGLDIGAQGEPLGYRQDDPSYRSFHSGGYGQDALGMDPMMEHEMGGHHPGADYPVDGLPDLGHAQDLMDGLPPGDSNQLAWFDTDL
# assay_summary: fluorescence polarization competition; displacement of 5FAM-TCF4(10-53) from full-length beta-catenin
Starred links: 1 amine or outer side, 2 acyl side, 3 side chain; linkers in the order of their positions; H or OH if unused. Positions of bridges follow the written chain, without caps; N, C: chain ends. Non-standard residues stand in square brackets, D forms with d. Primed or numbered codes have the meaning given here. B5(5) = 2,2-bis(4-pentenyl)glycine, 2-amino-2-(pent-4-en-1-yl)hept-6-enoic acid (stitching residue), C=CCCCC(CCCC=C)(N[*:1])C(=O)[*:2]; Bta = N[C@@H](Cc1csc2ccccc12)C(=O)O; αAllylPro = C=CC[C@@]1(C(=O)O)CCCN1; S8 = C=CCCCCCC[C@](C)(N)C(=O)O
Write the answer as a number in nM, unit excluded.

Query: Return reported EC50; argument: Ac-[αAllylPro]DL[B5(5)]DDAAFQ[S8]F[Bta]H-NH2 (staple 1-4, 4-11) [I-560]
Result: 81

Query: Return reported EC50; argument: XDLXDDAAFNXFXH (not fully specified; Ac-PL3-Asp-Leu-B5-Asp-Asp-Ala-Ala-Phe-Asn-S8-Phe-BztA-His-NH2; N-terminal acetyl, C-terminal amide; non-natural: PL3(1), B5(4), S8(11), BztA(13); staples PL3(1)-B5(4) and B5(4)-S8(11)) [I-565]
Result: 13

Query: Return reported EC50; argument: XDVXDDAAFNXFXQ (not fully specified; Ac-PL3-Asp-Val-B5-Asp-Asp-Ala-Ala-Phe-Asn-S8-Phe-BztA-Gln-NH2; N-terminal acetyl, C-terminal amide; non-natural: PL3(1), B5(4), S8(11), BztA(13); staples PL3(1)-B5(4) and B5(4)-S8(11)) [I-566]
Result: 76

Query: Return reported EC50; argument: XDIXDDAAFNXFXH (not fully specified; Ac-PL3-Asp-Ile-B5-Asp-Asp-Ala-Ala-Phe-Asn-S8-2OMeF-BztA-His-NH2; N-terminal acetyl, C-terminal amide; non-natural: PL3(1), B5(4), S8(11), 2OMeF(12), BztA(13); staples PL3(1)-B5(4) and B5(4)-S8(11)) [I-553]
Result: 61
